The measured values listed here are drawn from ChEMBL document CHEMBL3885861.

Listing: Plat of selected compounds
Species: Rattus norvegicus
Test: Open TG-GATES - Regimen: Single
Assay type: toxicity, organism-based, Sprague-Dawley
Design: regimen Single, gender Male, age 6 weeks
Conditions: in vivo, po, 30 mg/kg, 9 h, tissue Blood, route gavage, dose level Middle

See these solved cases before continuing.
CN(C)CCCN1c2ccccc2CCc2ccc(Cl)cc21 has a reported Plat of 124.6 x10_4/uL

CN(C)CCCN1c2ccccc2CCc2ccccc21 has a reported Plat of 111.8 x10_4/uL

CC1=C(/C=C/C(C)=C/C=C/C(C)=C/CO)C(C)(C)CCC1 has a reported Plat of 115.9 x10_4/uL

// switching to the query compound
CN(C)CCN(Cc1cccs1)c1ccccn1 has a reported Plat of 124.7 x10_4/uL
